target: GST-Bfl-1 (Homo sapiens); construct: lacking their C-terminal transmembrane domains (about the last 20 amino acids) (“ΔTM”); made in house; host or cells: XL-1 Blue E. coli, pGEX 4T-1; assay: Bfl-1/FITC-Bid BH3 competitive fluorescence polarization assay; format: binding; details: primary HTS hits, MLSCN library (PubChem SIDs), Table 5B
Sequence (Q16548 1-155 limits assumed): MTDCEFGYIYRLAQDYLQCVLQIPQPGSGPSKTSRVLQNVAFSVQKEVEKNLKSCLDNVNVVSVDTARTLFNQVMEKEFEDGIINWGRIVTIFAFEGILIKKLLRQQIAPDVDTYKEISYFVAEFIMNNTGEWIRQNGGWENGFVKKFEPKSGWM
Exercise: state measured FRatio for each of the molecules provided.
One number for each entry.

>>> test_result("Cc1ccc(-[n+]2c(-c3ccc(Br)cc3)cn3c2CCc2ccc4cccnc4c2-3)cc1 [Compound 14745910]")
0.81
>>> test_result("O=C(NCCCN1CCN(Cc2ccccc2)CC1)C1CCN(c2nnc(-n3cccc3)s2)CC1 [Compound 4250401]")
0.86
>>> test_result("Cc1cccc(OCC(=O)Nc2ccc(S(=O)(=O)N3CCCC3)cc2)c1 [Compound 7973703]")
0.82

Supply measured FRatio of Cc1cc(C)c2cc3c(ccn3C3OC[C@H](O)[C@H](O)[C@H]3O)cc2n1 (stereo partly shown) [Compound 4247900] in your reply. 1.1

###

molecular target: GST-Bcl-B (Homo sapiens); test: Bcl-B/FITC-TR3-r8 fluorescence polarization competition (displacement) assay, HTS and dose-response; conditions: Table 8, NCI Structural library; Binding Assay, FP; Concentration 0.02 uM
Exercise: state measured F Ratio for each of the compounds provided.
Numbers only.

Some solved entries appear below for comparison.
>>> test_result("O=C(O)/C=C/c1c2ccc(=O)c(O)c-2oc2c(O)c(O)ccc12 [Compound 119911]")
0.07992
>>> test_result("O=C(O)C1CCCCC1c1c2ccc(=O)c(O)c-2oc2c(O)c(O)ccc12 (stereo not shown) [Compound 119910]")
0.1582
>>> test_result("CN(C)CCCNc1cc(O)c2c(c1O)C(=O)c1ccccc1C2=O [Compound 339585]")
0.1416

Need F Ratio for each of these compounds.
1. CS(=O)(=O)Nc1ccc(Nc2c3ccccc3nc3ccccc23)cc1 [Compound 156305]
2. O=S(=O)(O)c1ccc(NN(c2c(O)ccc3ccccc23)S(=O)(=O)O)cc1 [Compound 9600]
3. N=C1C(O)C2(I)c3ccccc3N3C(=N)C(O)C4c5ccccc5N1C4C32 (stereo not shown) [Compound 118176]
4. CN(C)CS/C(N)=N\C(O)C(Cl)(Cl)Cl (stereo not shown) [Compound 14555]
5. O=S(=O)(O)c1cc(/N=N/c2cccc3ccccc23)c(O)c2ncccc12 [Compound 148354]
6. O=[N+]([O-])c1ccc(S(=O)(=O)Cc2ccccc2)c2nonc12 [Compound 228148]
7. Nc1ccc(-c2ccc(Nc3cc(S(=O)(=O)O)c(N)c4c3C(=O)c3ccccc3C4=O)cc2)c(S(=O)(=O)O)c1 [Compound 125910]

1. 0.1208
2. 0.4361
3. 0.5128
4. 0.6767
5. 0.07045
6. 1.1364
7. 0.2439

Need F Ratio for each of these compounds.
1. CN(C)S(=O)(=O)c1ccc(Nc2ccc(O)c3c2C(=O)c2c([N+](=O)[O-])ccc(O)c2C3=O)cc1 [Compound 117949]
2. Nc1nc(Sc2ccc([N+](=O)[O-])c3nonc23)c2nc[nH]c2n1 [Compound 348401]
3. CN(C)C1C(O)=C(C(=O)NCN2CCCC2)C(=O)C2(O)C(O)=C3C(=O)c4c(O)cccc4C(C)(O)C3CC12 (stereo not shown) [Compound 50352]
4. CNc1ccc(Nc2ccc(S(=O)(=O)O)cc2)c2c1C(=O)c1ccccc1C2=O [Compound 128437]

[0.9351, 1.4788, 0.2153, 0.9929]

Need F Ratio for each of these compounds.
1. O=C1c2cc([N+](=O)[O-])ccc2-c2ccc3c4ccc5c6c(ccc(c7ccc1c2c73)c64)C(=O)c1cc([N+](=O)[O-])ccc1-5 [Compound 51535]
2. Ic1ccc2c(c1)N(c1ccccc1)c1cc(Nc3ccc4nc5ccc(I)cc5[n+](-c5ccccc5)c4c3)ccc1N2 [Compound 402959]

1. 0.4823
2. 0.6261

###

molecular target: GST-Bfl-1 (Homo sapiens); construct: lacking their C-terminal transmembrane domains (about the last 20 amino acids) (“ΔTM”); made in house; host or cells: XL-1 Blue E. coli, pGEX 4T-1; assay: Bfl-1/FITC-Bid BH3 competitive fluorescence polarization assay; type: binding; conditions: primary HTS hits, MLSCN library (PubChem SIDs), Table 5B
property.name: % Activity (%)
Give bare numbers, in %.

Some solved entries appear below for comparison.
>>> test_result("c1ccc(-c2nn3c(Cn4nnc5ccccc54)nnc3s2)nc1")
82.6
>>> test_result("O=C(COC(=O)Cc1ccccc1)Nc1ncc(Cl)cc1Cl")
58.8
>>> test_result("COc1ccc(Nc2cc(C)nc3nc(C)nn23)cc1Cl")
82.3
>>> test_result("Cc1ccc(OCCC(=O)OCC(=O)Nc2ccc(Cl)cn2)cc1")
54.8
>>> test_result("c1cc2c3c(cccc3c1)NC1(CCCCC1)N2")
52.7

Need % Activity for each of these compounds.
1. O=C(COC(=O)C1CCN(S(=O)(=O)c2cc([N+](=O)[O-])ccc2Cl)CC1)Nc1ncc(Cl)cc1Cl
2. Cc1csc2nc(CNS(=O)(=O)N(C)C)cn12
3. Cc1ccc(OCC(=O)Nc2ccc(N3CCCC3)cc2)cc1C
4. CC1(C)CCCN(C(=O)c2coc(=O)c(Br)c2)C1

1. 75.9
2. 53.8
3. 90.6
4. 80.8

###

Exercise: state measured F Ratio for each of the compounds provided.
Molecular target: GST-Bcl-B (Homo sapiens, UniProt Q9HD36)
Sequence (Q9HD36 1-182 limits assumed): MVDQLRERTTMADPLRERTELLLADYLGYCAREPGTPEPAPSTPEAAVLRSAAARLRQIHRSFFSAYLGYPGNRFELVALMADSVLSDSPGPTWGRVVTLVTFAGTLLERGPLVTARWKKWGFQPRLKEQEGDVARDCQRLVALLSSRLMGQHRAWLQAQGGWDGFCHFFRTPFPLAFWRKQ
Assay: Bcl-B/FITC-TR3-r8 fluorescence polarization competition (displacement) assay, HTS and dose-response
Conditions: Table 7, NCI Mechanistic library; Binding Assay, FP; Concentration 0.02 uM
Answers are plain numbers.

Some solved entries appear below for comparison.
>>> test_result("CCN(CC)Cc1cc(/N=N/c2c(O)ccc3c(/N=N/c4ccc(O)c(CN(CC)CC)c4)c(O)ccc23)ccc1O")
0.08773
>>> test_result("O=C1c2ccccc2C(=O)c2c(O)c(O)cc(O)c21")
0.5532
>>> test_result("Nc1ccc2c(c1)CN1C(=O)c3ccccc3C1=N2")
1.4904
>>> test_result("O=S(=O)(O)c1cc(/N=N/c2cc(S(=O)(=O)O)c3ccccc3c2O)ccc1/C=C/c1ccc(/N=N/c2cc(S(=O)(=O)O)c3ccccc3c2O)cc1S(=O)(=O)O")
0.0509
>>> test_result("COc1ccc2c(NCCCCCCNc3c4ccccc4nc4cc(OC)ccc34)c3ccccc3nc2c1")
0.269
>>> test_result("CN(C)CCN1C(=O)c2cccc3cc(N)cc(c23)C1=O")
0.6345

Need F Ratio for each of these compounds.
1. COC(=O)c1ccc(O)c2nc3c(C=O)c(O)cc(O)c3nc12
2. [O-][n+]1c2c([n+]([O-])c3ccccc31)-c1cccc3cccc-2c13

1: 0.08027; 2: 1.4371

###

Exercise: state measured F Ratio for each of the compounds provided.
molecular target: GST-Bcl-B (Homo sapiens); experiment: Bcl-B/FITC-TR3-r8 fluorescence polarization competition (displacement) assay, HTS and dose-response; conditions: LOPAC1280 library; fluorescence intensity normalized to plate negative controls
One number for each entry.

>>> test_result("O=c1c(O)c(-c2cc(O)c(O)c(O)c2)oc2cc(O)cc(O)c12")
0.1247
>>> test_result("O=C1c2c(O)ccc(O)c2C(=O)c2c(NCCNCCO)ccc(NCCNCCO)c21")
1.1021
>>> test_result("C[C@H](Cc1ccc(O)c(O)c1)[C@@H](C)Cc1ccc(O)c(O)c1")
0.09564
>>> test_result("CN(N=O)c1cc(O)ccc1O")
0.1152
>>> test_result("O=[N+]([O-])c1cc(O)c(O)c([N+](=O)[O-])c1")
0.1464
>>> test_result("Cc1nc(/N=N\\c2cc(S(=O)(=O)O)c3cc([N+](=O)[O-])cc(S(=O)(=O)O)c3c2)c(COP(=O)(O)O)c(C=O)c1O")
0.2636
>>> test_result("O=C(c1cc(O)c(O)c([N+](=O)[O-])c1)c1ccccc1F")
0.1164
>>> test_result("CN(N=O)c1ccc(O)c(O)c1")
0.08483

Need F Ratio for each of these compounds.
1. O=c1c(O)c(-c2ccc(O)c(O)c2)oc2cc(O)cc(O)c12
2. O=C(O)C1=CC(=C(c2ccc(O)c(C(=O)O)c2)c2ccc(O)c(C(=O)O)c2)C=CC1=O
3. O=C(Nc1cc(C(=O)Nc2ccc(S(=O)(=O)O)cc2S(=O)(=O)O)cc(C(=O)Nc2ccc(S(=O)(=O)O)cc2S(=O)(=O)O)c1)Nc1cc(C(=O)Nc2ccc(S(=O)(=O)O)cc2S(=O)(=O)O)cc(C(=O)Nc2ccc(S(=O)(=O)O)cc2S(=O)(=O)O)c1

1: 0.1424; 2: 0.07629; 3: 1.0398
